differential viability (reversal) values, listed per item
assayExplanation: reversal of MRP1-mediated doxorubicin resistance, pilot screen, H69AR cells, doxorubicin co-treatment (AID 601)
conditionContext: H69AR cells + 2 uM doxorubicin, CellTiter-Glo, 72 h; at 10 µM; stronger effect = higher value

{"molecule": "Cc1ccc(-c2nnc3c4ccccc4c(C)nn23)cc1NC(=O)c1ccco1", "valueUnit": "%", "differential viability (reversal)": -3.85}
{"molecule": "CCS(=O)(=O)c1ccc(S(=O)(=O)CC)s1", "valueUnit": "%", "differential viability (reversal)": 0.02}
{"molecule": "Cn1c(=O)[nH]c(=O)c2c1ncn2CCN1CCOCC1", "valueUnit": "%", "differential viability (reversal)": 5.28}
{"molecule": "COc1cc(C2Nc3cccc4cccc(c34)N2)cc(OC)c1O", "valueUnit": "%", "differential viability (reversal)": -14.8}
{"molecule": "CCCC(OC(=O)CN1C(=O)COc2ccccc21)C(=O)NC1CCCC1 (stereo unspecified)", "valueUnit": "%", "differential viability (reversal)": 1.34}
{"molecule": "O=C(Cn1cnc2c(cnn2-c2ccccc2)c1=O)NCCc1ccccc1", "valueUnit": "%", "differential viability (reversal)": 0.99}
{"molecule": "CCc1cc2c(=O)c(-c3ccc4c(c3)OCCO4)coc2cc1OC(=O)c1ccco1", "valueUnit": "%", "differential viability (reversal)": -13.3}
{"molecule": "Cc1ccc2occ(CN3CCN(c4ccccc4)CC3)c(=O)c2c1", "valueUnit": "%", "differential viability (reversal)": -6.67}
{"molecule": "O=S(=O)(c1ccc(Oc2ccc(-c3nnco3)cc2)nc1)N1CCC(Cc2ccccc2)CC1", "valueUnit": "%", "differential viability (reversal)": -8.52}
{"molecule": "CCc1ccc(NC(=O)CS(=O)CC(=O)NCC2OCCc3ccccc32)cc1 (stereo unspecified)", "valueUnit": "%", "differential viability (reversal)": 4.08}
{"molecule": "Cc1nnc(C)c2c(C)n(Cc3ccc4c(c3)OCO4)c(C)c12", "valueUnit": "%", "differential viability (reversal)": 6.03}

====

assayExplanation: 384-well plate pilot, post-Golgi transport modulator project, inhibition of yeast transport mutant growth (AID 636)
conditionContext: absorbance 615 nm, about 18 h, stronger effect = higher value
assayEndpoint: inhibition (%)

{"compound": "CCn1c(SCC(=O)Nc2ccc3c(c2)OCO3)nc2c(c1=O)SC(C)C2 (stereo unspecified)", "readoutValue": -4.67}
{"compound": "CCCS(=O)(=O)N1CCCC(C(=O)NC(C)c2ccc3c(c2)OCCO3)C1 (stereo unspecified)", "readoutValue": -2.34}
{"compound": "CC(C)(C)n1nnnc1C(c1ccccc1)N1CCc2ccccc2C1 (stereo unspecified)", "readoutValue": -7.26}
{"compound": "CC(=N\\O)/C(CN(C)C)=N/O", "readoutValue": -1.78}
{"compound": "CCOC(=O)C1CSc2[nH]c(=O)sc2C1c1ccccc1 (stereo unspecified)", "readoutValue": 0.95}
{"compound": "COc1ccc(CCN(C)CCCC(C#N)(c2cc(OC)c(OC)c(OC)c2)C(C)C)cc1OC (stereo unspecified)", "readoutValue": 5.71}
{"compound": "CC(C)Oc1cc2oc(=O)c3c(c2cc1Cl)CCC3", "readoutValue": -7.4}
{"compound": "COc1ccc(C)cc1NC(=O)CCC(=O)Nc1ccc2nc(N3CCN(C)CC3)cc(C)c2c1", "readoutValue": 3.95}
{"compound": "N#Cc1cc2c(nc1SCC(=O)Nc1sc3c(c1C#N)CCC3)CCCCC2", "readoutValue": -7.84}
{"compound": "c1cncc(C2Nc3ccccc3-c3nc4ccccc4n32)c1 (stereo unspecified)", "readoutValue": -2.53}
{"compound": "C=CCn1c(SCn2nnc3ccccc3c2=O)nnc1-c1ccc(Br)cc1", "readoutValue": 43.2}

====

assayExplanation: reversal of MRP1-mediated doxorubicin resistance, pilot screen, H69AR cells, doxorubicin co-treatment (AID 601)
conditionContext: H69AR cells + 2 uM doxorubicin, CellTiter-Glo, 72 h; measured here: viability with 2 uM doxorubicin; at 10 µM; stronger effect = lower value

{"molecule": "Cc1nn(C(=O)c2ccccc2)c2c1C(=O)CC(C)(C)C2", "valueUnit": "%", "viability": 93.4}
{"molecule": "CC1(C)NC(=O)N(CCOc2cccc(Cl)c2Cl)C1=O", "valueUnit": "%", "viability": 87.5}
{"molecule": "Cc1ccc(S(=O)(=O)NC(C)C(=O)Nc2ccc(C(N)=O)cc2)cc1 (stereo unspecified)", "valueUnit": "%", "viability": 96}
{"molecule": "COc1ccc(N2C(=O)C3CCCN3C2c2ccc(F)cc2)cc1Cl (stereo unspecified)", "valueUnit": "%", "viability": 88.7}
{"molecule": "COCCNC(=O)C(c1ccc(C)o1)N(Cc1cccs1)C(=O)c1snc(C(N)=O)c1N (stereo unspecified)", "valueUnit": "%", "viability": 86}
{"molecule": "CCCCc1c(O)nc(N2CCN(Cc3ccccc3)CC2)[nH]c1=O", "valueUnit": "%", "viability": 97.8}
{"molecule": "COc1ccc(CCN2C(=O)CC(N3CCOCC3)C2=O)cc1 (stereo unspecified)", "valueUnit": "%", "viability": 79.9}
{"molecule": "CNC(=O)NCCN1CCCC1=O", "valueUnit": "%", "viability": 87.5}
{"molecule": "CCCCCCCCCCCCCCCC(O)C(N)CO (stereo unspecified)", "valueUnit": "%", "viability": 1.44}
{"molecule": "Cc1cc(NC(=O)c2ccc3nc(-c4ccccc4)c(-c4ccccc4)nc3c2)no1", "valueUnit": "%", "viability": 14.8}
{"molecule": "CC1(C)CC(=O)C(CC(=O)NC(=O)NCc2ccccc2)=C(O)C1", "valueUnit": "%", "viability": 94.7}

====

viability values, listed per item
assayExplanation: growth inhibitors of H69AR lung tumor, primary screen, human, duplicate replicates (AID 580);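 also: 100% = mean luminescence of untreated wells and 0% = no signal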
conditionContext: H69AR lung tumor cells viability, ATP luminescence, 72 h; at 10 µM; stronger effect = lower value
assayEndpoint: viability (%)

{"compound": "CCN1CCN(c2c(Cl)cccc2NC(=O)c2ccc3c(c2)OCCO3)CC1", "assayEndpoint": "viability", "readoutValue": 81.7}
{"compound": "COC(=O)c1ccccc1NC(=O)COc1ccc(S(=O)(=O)N2CCCC2)cc1C", "assayEndpoint": "viability", "readoutValue": 74.4}
{"compound": "Cn1c2c(c(=O)n(C)c1=O)C(NC(=O)C(C)(C)C)(C(F)(F)F)C(=O)N2 (stereo not given)", "assayEndpoint": "viability", "readoutValue": 90.3}
{"compound": "CC1(C)C2CCC1(C)C(OC(=O)CSc1nc(N)cc(=O)[nH]1)C2 (stereo not given)", "assayEndpoint": "viability", "readoutValue": 92.8}
{"compound": "Cc1nn(Cc2ccccc2)c(C)c1NC(=O)c1cc(-c2ccco2)on1", "assayEndpoint": "viability", "readoutValue": 102}
{"compound": "CCOC(=O)c1cccc(NC(=O)CSc2nnc(-c3cccnc3)n2C)c1", "assayEndpoint": "viability", "readoutValue": 98.3}
{"compound": "Cc1cc(C)c2c(N)c(C(=O)c3ccccc3)oc2n1", "assayEndpoint": "viability", "readoutValue": 90.4}
{"compound": "COc1ccccc1NC(=O)N(Cc1ccco1)Cc1cc2cccc(C)c2[nH]c1=O", "assayEndpoint": "viability", "readoutValue": 75.8}
{"compound": "CCN(CC)CCn1c(OC)cc(=O)[nH]c1=O", "assayEndpoint": "viability", "readoutValue": 101}
{"compound": "Oc1ccc(C=Nc2cccc3ncccc23)c(O)c1", "assayEndpoint": "viability", "readoutValue": 84.9}
{"compound": "Cc1cc2c(c(=O)n1C)C(Cc1ccccc1)C(C#N)=C(N)O2 (stereo not given)", "assayEndpoint": "viability", "readoutValue": 95.1}
{"compound": "COc1ccc(OC)c(NC(=O)CCNS(=O)(=O)c2cccs2)c1", "assayEndpoint": "viability", "readoutValue": 99.8}
{"compound": "COc1ccccc1NC(=O)NCCCN1CCN(c2cccc(Cl)c2)CC1", "assayEndpoint": "viability", "readoutValue": 72.6}
{"compound": "CCOC(=O)c1[nH]c(C)c(C(=O)Nc2ccccc2C)c1C", "assayEndpoint": "viability", "readoutValue": 19.3}
{"compound": "CCN(CC)CCOC(=O)c1cccc(OC)c1", "assayEndpoint": "viability", "readoutValue": 90.2}
{"compound": "CCc1nnc(NC(=O)C2Cc3ccccc3CN2S(=O)(=O)c2cccs2)s1 (stereo not given)", "assayEndpoint": "viability", "readoutValue": 68.1}
{"compound": "Cc1nn(Cc2ccccc2Cl)c(C)c1NC(=O)C1C2CCC(O2)C1C(=O)O (stereo not given)", "assayEndpoint": "viability", "readoutValue": 90.9}
{"compound": "CC(=O)Nc1ccc(S(=O)(=O)N(C2=NCC(C)S2)c2ccccc2)cc1 (stereo not given)", "assayEndpoint": "viability", "readoutValue": 91.7}
{"compound": "CCCN1CCN(C(=O)Cn2cccc2C(=O)c2ccccc2)CC1", "assayEndpoint": "viability", "readoutValue": 100}
{"compound": "Cc1cccc(NC(=O)C2CCCN(C(=O)Nc3ccccc3)C2)c1C (stereo not given)", "assayEndpoint": "viability", "readoutValue": 96.2}
{"compound": "CC(=O)Nc1ccc(S(=O)(=O)N2CCSC2c2ccccc2)cc1 (stereo not given)", "assayEndpoint": "viability", "readoutValue": 91.5}
{"compound": "CCN(CC(=O)Nc1ccc2c(c1)CCC2)Cc1nc2ccccc2c(=O)[nH]1", "assayEndpoint": "viability", "readoutValue": 71.5}
{"compound": "O=C(CN1CCSCC1)N1CCc2[nH]c3ccc(Br)cc3c2C1", "assayEndpoint": "viability", "readoutValue": 88.6}
{"compound": "Cc1ccc2c(c1)sc1ncc(NC(=O)c3ccccc3)c(=O)n12", "assayEndpoint": "viability", "readoutValue": 91.7}
{"compound": "Cc1cc(=O)n2nc(N3CCCC(C(=O)N4CCc5ccccc54)C3)sc2n1 (stereo not given)", "assayEndpoint": "viability", "readoutValue": 85.8}
{"compound": "Nc1nc2ccccc2n1/N=C/c1ccc(Br)cc1", "assayEndpoint": "viability", "readoutValue": 86.8}
{"compound": "Cc1sc2nc(SCC(=O)Nc3c(C)n(C)n(-c4ccccc4)c3=O)n(C)c(=O)c2c1C", "assayEndpoint": "viability", "readoutValue": 97.3}
{"compound": "c1ccc(Cn2nnnc2C(c2ccccn2)N2CCOCC2)cc1 (stereo not given)", "assayEndpoint": "viability", "readoutValue": 94.3}
{"compound": "Cc1ccc(S(=O)(=O)N2CCCC2C(=O)OCc2ccco2)cc1 (stereo not given)", "assayEndpoint": "viability", "readoutValue": 77.2}
{"compound": "CCOC(=O)CSc1nc2sc(C)c(C)c2c(=O)[nH]1", "assayEndpoint": "viability", "readoutValue": 92.2}
{"compound": "O=C(CN1CCN(c2nc(-c3ccc(Cl)cc3)cs2)CC1)NCc1ccco1", "assayEndpoint": "viability", "readoutValue": 97.9}
{"compound": "Cc1cccc(C)c1NC(=O)COC(=O)c1nonc1N", "assayEndpoint": "viability", "readoutValue": 98.9}
{"compound": "COc1ccc(Cn2nnnc2C(c2ccccn2)N2CCN(c3cc(Cl)ccc3C)CC2)cc1 (stereo not given)", "assayEndpoint": "viability", "readoutValue": 77.3}
{"compound": "COc1ccc(-c2noc(C3CCCN(C(=O)CCc4ccccc4)C3)n2)cc1 (stereo not given)", "assayEndpoint": "viability", "readoutValue": 84.3}
{"compound": "Cc1cc(Oc2ccc(Cl)cc2)nc(-c2ccccc2O)n1", "assayEndpoint": "viability", "readoutValue": 93.9}
{"compound": "CCOCC(O)CS(=O)Cc1ccccc1 (stereo not given)", "assayEndpoint": "viability", "readoutValue": 98.5}
{"compound": "OCCn1c(CSc2nnc(-c3ccco3)n2-c2ccccc2)nc2ccc(Cl)cc21", "assayEndpoint": "viability", "readoutValue": 84.9}
{"compound": "CCOC(=O)C1=C(N)OC2=C(C(=O)CC(C)(C)C2)C1c1ccco1 (stereo not given)", "assayEndpoint": "viability", "readoutValue": 87.8}
{"compound": "O=C(NCC1CCCO1)c1ccc(N2CCCCC2)nc1 (stereo not given)", "assayEndpoint": "viability", "readoutValue": 90.1}
{"compound": "O=C(Nc1ccc2c(c1)OCO2)N1CCN(c2ncccn2)CC1", "assayEndpoint": "viability", "readoutValue": 85.5}
{"compound": "COCCNC(=O)CN1CCC(NC(=O)Nc2ccc(C(F)(F)F)cc2)CC1", "assayEndpoint": "viability", "readoutValue": 102}
{"compound": "COc1ccc(OCCN2C(=O)NC(C)(c3ccc(C)cc3)C2=O)cc1 (stereo not given)", "assayEndpoint": "viability", "readoutValue": 91.1}
{"compound": "Oc1ccc(N2CCN(C(c3cccnc3)c3nnnn3Cc3ccccc3)CC2)cc1 (stereo not given)", "assayEndpoint": "viability", "readoutValue": 90.2}
{"compound": "COc1ccc2c(c1)CCc1c(C(=O)N3CC4(C)CC3CC(C)(C)C4)noc1-2 (stereo not given)", "assayEndpoint": "viability", "readoutValue": 75.1}
{"compound": "CCCN1Cc2cccc(C(=O)NCc3cccs3)c2C1=O", "assayEndpoint": "viability", "readoutValue": 90.6}
